These entries and their values trace back to patent US20110143948A1.

tested on: ncRNAs (SEQ ID NO 28-89); experiment: ncRNA arrays of melanocytes, keratinocytes, normal skin, melanoma cell lines and patient samples; parameters: species or system human; conditions: melanoma patient 9 sample compared to normal skin
Listed next: entries and their corresponding ncRNA array expression, patient 9.
Test readout: ncRNA array expression, patient 9

• SEQ ID NO 38 (GTAAACAAGGTCTCACAAAAACAGCTGACCACACCATAAAATCACTGAGACCGAGCCTGC; listed as DNA, chemistry not given here; listed as Homo sapiens) = −1.183
• SEQ ID NO 68 (CAAAAAGAAATCTTGTTTACTTGTAAAAATATAGACTACCTCCTACTTGCCACCGTTAAG; listed as DNA, chemistry not given here; listed as Homo sapiens) = −1.121
• SEQ ID NO 67 (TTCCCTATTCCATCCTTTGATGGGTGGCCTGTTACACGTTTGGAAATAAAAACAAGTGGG; listed as DNA, chemistry not given here; listed as Homo sapiens) = 1.111
• SEQ ID NO 86 (AAAATTATTTTATCTTAAGTTTCCATTTAGTTGATTAAAAATAGGGTTATGAATGTTAAA; listed as DNA, chemistry not given here; listed as Homo sapiens) = 0.02401
• SEQ ID NO 43 (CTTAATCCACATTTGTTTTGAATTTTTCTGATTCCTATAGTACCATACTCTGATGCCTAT; listed as DNA, chemistry not given here; listed as Homo sapiens) = −1.226
• SEQ ID NO 80 (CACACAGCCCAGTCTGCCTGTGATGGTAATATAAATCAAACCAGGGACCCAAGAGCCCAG; listed as DNA, chemistry not given here; listed as Homo sapiens) = −1.383
• SEQ ID NO 66 (TCCTTTTTATCTTGCACTCAGATGGTATTTTTAGAGATGTTTCTTCAATCAAAACAAGAT; listed as DNA, chemistry not given here; listed as Homo sapiens) = 1.498
• SEQ ID NO 61 (CATACATTGCCCTCACTAATCAATGGACATTTCAGCATTTCATTACTAATTTTGAGAGAA; listed as DNA, chemistry not given here; listed as Homo sapiens) = 1.694
• SEQ ID NO 41 (CTCGTAACACTGGGAAAACTGCATACAATATTTAGAAGGAACACTAATACAGCAGAATCT; listed as DNA, chemistry not given here; listed as Homo sapiens) = −2.456
• SEQ ID NO 30 (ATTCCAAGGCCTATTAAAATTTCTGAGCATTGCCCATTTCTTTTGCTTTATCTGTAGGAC; DNA, backbone and methylation of C not given here; listed as Homo sapiens) = 0.4508
• SEQ ID NO 39 (TGATCCTGTAAATCATGTTTTTGTTTATTCCCCAACACTAACCTCACTCCTTTACTATTC; listed as DNA, chemistry not given here; listed as Homo sapiens) = −1.306
• SEQ ID NO 72 (AATTACATATATTTAGCAGGATTTTTATTTGCCGTGATATATAGGATAATTTAGTCTTTG; listed as DNA, chemistry not given here; listed as Homo sapiens) = −0.6629
• SEQ ID NO 79 (GTGTGTACTGATGTCAAAGACCAAATGGATGCCCCTGTGGCCAACAGTACCTTGTTAAAC; listed as DNA, chemistry not given here; listed as Homo sapiens) = 1.129
• SEQ ID NO 28 (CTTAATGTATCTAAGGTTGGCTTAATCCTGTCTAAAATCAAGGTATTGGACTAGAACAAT; DNA, backbone and methylation of C not given here; listed as Homo sapiens) = 0.7923
• SEQ ID NO 29 (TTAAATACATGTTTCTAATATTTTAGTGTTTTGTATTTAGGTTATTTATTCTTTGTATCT; DNA, backbone and methylation of C not given here; listed as Homo sapiens) = 2.109
• SEQ ID NO 65 (CACCGTTTTACTTTTTGTGGGGAGGGGAAGCAGTATCAAAATTTCTTCGGGCGCCAGAAC; listed as DNA, chemistry not given here; listed as Homo sapiens) = −1.267
• SEQ ID NO 34 (TTTTCTCTGCTTATTACCCTCCCTGTTTCCTCCTGGGCTGCCAACAACATATTATATTAC; listed as DNA, chemistry not given here; listed as Homo sapiens) = 1.958
• SEQ ID NO 31 (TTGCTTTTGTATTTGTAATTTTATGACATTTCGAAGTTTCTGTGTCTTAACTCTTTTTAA; listed as DNA, chemistry not given here; listed as Homo sapiens) = 2.588
